Recorded values, source ChEMBL document CHEMBL5113446.

- Study target: Sigma intracellular receptor 2 (Homo sapiens, UniProt Q5BJF2)
- Sequence (Q5BJF2 whole entry): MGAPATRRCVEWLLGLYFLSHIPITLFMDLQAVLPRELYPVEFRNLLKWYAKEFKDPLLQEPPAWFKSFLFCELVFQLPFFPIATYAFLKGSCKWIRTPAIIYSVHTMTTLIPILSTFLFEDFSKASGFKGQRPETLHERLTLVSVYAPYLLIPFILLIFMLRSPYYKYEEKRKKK
- Assay comment: Binding affinity to sigma 2 receptor (unknown origin) assessed as inhibition constant by radioligand binding assay
pKi: −log10 of the molar value.
Reported pKi by item:
Measure name: pKi

[
  {
    "Smiles structure": "COc1ccc(CN(C)CCCNC(=O)c2cc3ccccc3o2)cc1OC",
    "Study target": "Sigma intracellular receptor 2 (Homo sapiens, UniProt Q5BJF2)",
    "Value prefix": "=",
    "Result value": 7.34
  },
  {
    "Smiles structure": "CN(CCCNC(=O)c1ccc2ccccc2c1)Cc1ccccc1",
    "Study target": "Sigma intracellular receptor 2 (Homo sapiens, UniProt Q5BJF2)",
    "Value prefix": "=",
    "Result value": 6.97
  },
  {
    "Smiles structure": "CN(CCCNC(=O)c1ccco1)Cc1ccccc1",
    "Study target": "Sigma intracellular receptor 2 (Homo sapiens, UniProt Q5BJF2)",
    "Value prefix": "=",
    "Result value": 5.97
  },
  {
    "Smiles structure": "CN(CCCNC(=O)c1cc2ccccc2o1)Cc1ccccc1",
    "Study target": "Sigma intracellular receptor 2 (Homo sapiens, UniProt Q5BJF2)",
    "Value prefix": "=",
    "Result value": 8.00
  },
  {
    "Smiles structure": "COc1ccc(CN(C)CCCNC(=O)c2ccco2)cc1OC",
    "Study target": "Sigma intracellular receptor 2 (Homo sapiens, UniProt Q5BJF2)",
    "Value prefix": "<",
    "Result value": 5.30
  },
  {
    "Smiles structure": "COc1ccc(CN(C)CCCNC(=O)c2ccc3ccccc3n2)cc1OC",
    "Study target": "Sigma intracellular receptor 2 (Homo sapiens, UniProt Q5BJF2)",
    "Value prefix": "=",
    "Result value": 7.80
  },
  {
    "Smiles structure": "COc1ccc(CN(C)CCCNC(=O)c2ccc3ccccc3c2)cc1OC",
    "Study target": "Sigma intracellular receptor 2 (Homo sapiens, UniProt Q5BJF2)",
    "Value prefix": "=",
    "Result value": 6.90
  },
  {
    "Smiles structure": "CN(CCCNC(=O)c1ccc2ccccc2n1)Cc1ccccc1",
    "Study target": "Sigma intracellular receptor 2 (Homo sapiens, UniProt Q5BJF2)",
    "Value prefix": "=",
    "Result value": 7.68
  }
]

====

- Organism: Homo sapiens
- Assay comment: Selectivity index, ratio of Ki for sigma 1 receptor (unknown origin) to Ki for sigma 2 receptor (unknown origin)
// reported Ratio Ki for each item listed

[
  {
    "Smiles structure": "COc1ccc(CN(C)CCCNC(=O)c2cc3ccccc3o2)cc1OC",
    "Ratio Ki": 8.1
  },
  {
    "Smiles structure": "CN(CCCNC(=O)c1ccc2ccccc2c1)Cc1ccccc1",
    "Ratio Ki": 1
  },
  {
    "Smiles structure": "CN(CCCNC(=O)c1cc2ccccc2o1)Cc1ccccc1",
    "Ratio Ki": 1.2
  },
  {
    "Smiles structure": "COc1ccc(CN(C)CCCNC(=O)c2ccc3ccccc3c2)cc1OC",
    "Ratio Ki": 11
  },
  {
    "Smiles structure": "COc1ccc(CN(C)CCCNC(=O)c2ccc3ccccc3n2)cc1OC",
    "Ratio Ki": 35
  },
  {
    "Smiles structure": "CN(CCCNC(=O)c1ccc2ccccc2n1)Cc1ccccc1",
    "Ratio Ki": 0.7
  }
]
